These measurements were taken from patent US20250170112A1.

Target: human Adenosine A1 receptor (Homo sapiens, UniProt P30542)
Sequence (P30542 whole entry): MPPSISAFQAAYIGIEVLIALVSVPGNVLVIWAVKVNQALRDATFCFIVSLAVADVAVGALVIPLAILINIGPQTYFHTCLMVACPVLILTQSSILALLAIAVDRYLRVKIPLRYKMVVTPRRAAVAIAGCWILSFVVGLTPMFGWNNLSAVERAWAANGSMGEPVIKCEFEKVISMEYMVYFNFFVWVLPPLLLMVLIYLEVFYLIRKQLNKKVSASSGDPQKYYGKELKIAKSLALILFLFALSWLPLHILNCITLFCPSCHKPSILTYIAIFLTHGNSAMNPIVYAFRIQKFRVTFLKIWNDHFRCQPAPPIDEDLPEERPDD
Test: GTPγS scintillation proximity assay, agonist testing
Conditions: agonist activity; membrane extracts of CHO-K1 cells expressing recombinant human A1; read-out: A1AR EC50
pEC50: −log10 of the molar value.
Metric name: pEC50

N#Cc1c(N)nc(SCC2CCOCC2)c(C#N)c1-c1ccc(OC2COC2)cc1 [Compound 305] | 6.85
COCC(F)(F)Oc1ccc(-c2c(C#N)c(N)nc(SCc3cccnc3)c2C#N)cc1 [Compound 306] | 6.45
CNC(=O)CSc1nc(N)c(C#N)c(-c2ccc(OCCOC)cc2)c1C#N [Compound 146] | 6.75

[I] N#Cc1cnc(SCc2cccnc2)c(C#N)c1-c1ccc(OC2COC2)cc1 [Compound 18]
[II] COCCOc1ccc(-c2c(C#N)c(N)nc(SCc3cccc(OC(F)(F)F)c3)c2C#N)cc1 [Compound 35]
[III] N#Cc1c(N)nc(SCC2COC2)c(C#N)c1-c1ccc(OCCO)cc1 [Compound 223]
[IV] COCCOc1ccc(-c2c(C#N)c(N)nc(SCCNC(C)=O)c2C#N)cc1 [Compound 120]
[V] CN(Cc1cccnc1)c1nc(N)c(C#N)c(-c2ccc(OCCO)cc2)c1C#N [Compound 160]
## Input Sort (5 molecules) by pEC50: min first. Return value: ordered labels per request.
## Output IV, II, V, I, III
